target-desc: T1, biotinylated recombinant mouse IL-12Rβ2 (mouse, UniProt P97378 24-637, random biotinylated)
T1 construct: Recombinant protein produced in-house, biotinylated; also called mIL-12RB2; mouse IL-12RB2
T1 sequence: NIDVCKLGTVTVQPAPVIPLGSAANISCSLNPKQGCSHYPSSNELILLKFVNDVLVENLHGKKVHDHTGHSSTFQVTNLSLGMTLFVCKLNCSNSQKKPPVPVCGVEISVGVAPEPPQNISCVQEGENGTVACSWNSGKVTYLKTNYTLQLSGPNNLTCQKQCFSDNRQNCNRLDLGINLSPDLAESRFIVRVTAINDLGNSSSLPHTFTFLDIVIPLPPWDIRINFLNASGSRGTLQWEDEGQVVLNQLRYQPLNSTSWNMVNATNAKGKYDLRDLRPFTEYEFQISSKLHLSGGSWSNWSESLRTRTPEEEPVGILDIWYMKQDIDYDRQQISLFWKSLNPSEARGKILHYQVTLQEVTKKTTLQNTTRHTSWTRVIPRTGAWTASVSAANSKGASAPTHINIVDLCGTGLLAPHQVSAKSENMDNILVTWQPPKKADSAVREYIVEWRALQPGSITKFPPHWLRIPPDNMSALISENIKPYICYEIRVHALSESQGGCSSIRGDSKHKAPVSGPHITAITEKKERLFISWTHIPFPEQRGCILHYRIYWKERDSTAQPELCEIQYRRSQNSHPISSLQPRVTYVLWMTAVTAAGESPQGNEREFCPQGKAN
assay: ELISA, periplasmic extract on biotinylated mIL-12Rβ2, signal over control wells
quantity-measured: ELISA binding mIL-12RB2/control (ratio)
Please respond with the number in ratio and leave the unit unwritten.

Exercise: What does the data say about its ELISA binding mIL-12RB2/control? Entry: anti-IL-12Rβ2 VHH clone 20404 (VHH, not shown: small tags and cut ends, tested as periplasmic extract; also called 3CAHS153) VHH: QVQLQESGGGLVQAGGSLRLSCAASGRTFSSYAMGWFRQVPGKERDFVAAVSWGGLSTYYADSVEGRFTISRDNAKNTVFLQMNSLKPEDTAVYYCAADRAYEGLGYGEYEYWGQGTQVTVSS
Solution: 1.08

Exercise: Then what about the binder anti-IL-12Rβ2 VHH clone 21062 (VHH, not shown: small tags and cut ends, tested as periplasmic extract; also called 3CRHM99) VHH: QVQLQESGGGLVQPGGSLRLSCAASGISSSRLHVGWFRQSPGKEREFVAAISLSGGTQAYTDSVKGRFTISGDNVKNTAYLQMNSLRPEDTAVYYCAARERFIWTWSDLTYDYWGQGTQVTVSS ?
Solution: 5.24

Continuing:
Exercise: What does the data say about its ELISA binding mIL-12RB2/control? Entry: anti-IL-12Rβ2 VHH clone 20541 (VHH, not shown: small tags and cut ends, tested as periplasmic extract; also called 3CAMS9) VHH: QVQLQESGGGLVQAGGSLRLSCAASGRTFSSYGMGWFRQAPGKEREFVAAISRDARITDYADSVKGRFTISRDNAKNTAYLEMNSLNPEDTAVYSCAAAYTYSGSHYVTARSSDYHSWGQGTQVTVSS
Solution: 5.66

Exercise: Then what about the binder anti-IL-12Rβ2 VHH clone 20495 (VHH, not shown: small tags and cut ends, tested as periplasmic extract; also called 2CAM69) VHH: QVQLQESGGGLVQAGGSLRLSCAASGRTFSMHGMGWFRQAPGKEREFVAAISRDARITDYADSVKGRFTISRDNAKNTAYLQMNSLNPEDTAVYFCAAAYTYSGSHYVTARSSDYNYWGQGTQVTVSS ?
Solution: 15.8
